Reported melting point by item:

- compound: "CC(C)(C)OC(=O)NC(Cc1ccccc1)C(O)CNCC(O)C(Cc1ccc(OCCN2CCOCC2=O)cc1)NC(=O)OC(C)(C)C (configuration not stated)"
  melting point: "108 to 111 °C"
- compound: "Cn1cc(C(=O)c2ccc(F)cc2)cc1C(=O)c1ccncc1"
  melting point: "155 to 157 °C"
- compound: "O=S(=O)(CCN1CCOCC1)OCCOc1ccn(-c2ccc(Cl)c(Cl)c2)n1"
  melting point: "120 to 122 °C"
- compound: "CC(=O)NC[C@H]1CN(c2ccc(N3CCN(CCCO)CC3)c(F)c2)C(=O)O1"
  melting point: "154 to 156 °C"
- compound: "CCCCCC(CC(=O)Nc1c(C(C)C)cccc1C(C)C)c1cccc2c1OCO2 (configuration not stated)"
  melting point: "114 to 115 °C"
- compound: "Nc1ccc(OC23CC4CC(CC(C4)C2)C3)cc1"
  melting point: "172 to 175 °C"
- compound: "Cc1cc(C)cc(CN(C)C(=O)C(Cc2c[nH]c3ccccc23)NC(=O)c2ccccc2)c1 (configuration not stated)"
  melting point: "140 to 142 °C"
- compound: "O=Cc1ccc2c(c1)S(=O)c1ccccc1CC2 (configuration not stated)"
  melting point: "158 to 160 °C"
- compound: "CC(C)c1ccc(N(Cc2ccc(N(C)C)cc2)C(=O)Nc2c(C(C)C)cccc2C(C)C)cc1"
  melting point: "203 to 206 °C"
- compound: "CC(=O)Nc1cccc(OCc2ccccc2)c1C"
  melting point: "142 to 143 °C"
- compound: "CC(C)(C)C(NC(=O)CCc1ccccc1)Nc1c(Nc2cccnc2Cl)c(=O)c1=O (configuration not stated)"
  melting point: "160 to 161 °C"
- compound: "O=[N+]([O-])c1ccc(NCCC23CCCN2CCC3)c2ccccc12"
  melting point: "90 to 91 °C"

---

- compound: "CC(O)Cn1cc(-c2ccccc2)c2ccccc2c1=O (stereo not drawn)"
  melting point: "162 °C"
- compound: "C=CC[C@@H]1CCC(=O)C[C@H]1c1ccc(OCc2ccccc2)cc1OCc1ccccc1 (relative stereo)"
  melting point: "104 to 106 °C"
- compound: "CC(C)c1c(/C=C/I)c(-c2ccc(F)cc2)nc2ccccc12"
  melting point: "145 to 147 °C"
- compound: "CC(=O)C[C@H]1CC[C@H](c2ccc(Cl)cc2)CC1"
  melting point: "58 to 60 °C"
- compound: "O=C1C(=O)c2ccccc2C2=C1SCC1(CCN(CC(O)COCc3ccco3)CC1)O2 (stereo not drawn)"
  melting point: "143 to 145 °C"
- compound: "COc1ccc(C(=O)Nc2ccccc2)cc1NCc1ccc(F)c(F)c1"
  melting point: "150 to 152 °C"
- compound: "O=C(Nc1cccc(C(F)(F)F)c1)C(F)(F)F"
  melting point: "69 °C"
- compound: "CCN1CCc2c([nH]c3ccccc23)C1CNC(=O)OCc1ccccc1 (stereo not drawn)"
  melting point: "92 to 94 °C"
- compound: "O=[N+]([O-])c1cccc2ccc3c(c12)C(CCl)CN3 (stereo not drawn)"
  melting point: "100 °C"
- compound: "O=c1[nH]c2ccc(CCN3CCN(c4cccc5cccnc45)CC3)cc2o1"
  melting point: "200 °C"
- compound: "CNC1CC=C(c2c[nH]c3ccc(NC(=N)c4cccs4)cc23)CC1 (stereo not drawn)"
  melting point: "167 to 169 °C"
- compound: "Clc1ncc(CN2CC3(COc4cc5c(cc43)OCO5)c3ccccc32)s1 (stereo not drawn)"
  melting point: "195 to 198 °C"
- compound: "NS(=O)(=O)c1nc2cc(O)ccc2s1"
  melting point: "224 °C"
- compound: "COc1ccc(C(=O)c2sccc2OC2OC(COC(C)=O)C(OC(C)=O)C(OC(C)=O)C2OC(C)=O)cc1 (stereo not drawn)"
  melting point: "149 to 151 °C"
- compound: "O=c1c2cccnc2c(-c2cccc(Cl)c2)cn1Cc1ccccc1"
  melting point: "149 to 150 °C"
- compound: "OCC1OC(n2cnc3c(NNC4CCOc5ccccc54)ncnc32)C(O)C1O (stereo not drawn)"
  melting point: "125 to 130 °C"
- compound: "O=c1[nH]n(-c2ccnc(N[C@H]3CC[C@H](O)CC3)n2)c2ccccc12"
  melting point: "264 °C"
- compound: "Cc1cc(C[C@@H](NC(=O)c2ccc(F)c3ccccc23)[C@@H](O)c2ccc(F)cc2)cc(OC(F)(F)C(F)F)c1 (racemic)"
  melting point: "189 to 190 °C"
- compound: "ClC1(Cl)OC(Cl)(Cl)c2ccccc21"
  melting point: "85 to 86 °C"
- compound: "CSc1cc(C)nc(SC)c1NC(=O)CCCCCCCSc1nc2ccccc2s1"
  melting point: "104 to 108 °C"
- compound: "COc1cc2c3c(n(CCCNS(=O)(=O)c4ccccc4)c(=O)c2cc1OC)-c1ccccc1C3=O"
  melting point: "249 to 250 °C"
- compound: "Cc1ccc(S(=O)(=O)O[C@@H]2C[C@@H](CCl)N(S(=O)(=O)c3ccc(C)cc3)C2)cc1"
  melting point: "145 to 146 °C"
- compound: "COc1ncccc1C(=O)Nc1ccn2cc(-c3ccccc3)nc2n1"
  melting point: "225 to 226 °C"
- compound: "O=c1c(-c2ccc(Cl)cc2)c2c(cn1CO)Sc1ccccc1N2"
  melting point: "> 300 °C"
- compound: "C=C(C)C(=O)Nc1ccc(O)c(-n2nc3ccc(OC)cc3n2)c1"
  melting point: "199 to 201 °C"
- compound: "CC12CCC3c4cccc(N)c4CCC3C1CCC2O (stereo not drawn)"
  melting point: "189 to 192 °C"
- compound: "COc1cc(NS(=O)(=O)c2ccc(Cl)cc2)c(C(=O)Nc2ccc(S(=O)(=O)F)cc2)cc1OC"
  melting point: "216 to 219 °C"
- compound: "CCCCCCCNC(=O)Nc1ccc(-n2nc(C(F)(F)F)cc2C(F)(F)F)cc1"
  melting point: "129 to 130 °C"
- compound: "Cc1cn(-c2cc(NC(=O)c3ccc(C)c(C#Cc4ccc(NC5CC5)nn4)c3)cc(C(F)(F)F)c2)cn1"
  melting point: "226 to 228 °C"
- compound: "Nc1nc(=O)n(S(=O)(=O)c2ccc(Cl)cc2)cc1F"
  melting point: "174 to 178 °C"
- compound: "CC(C)(C)[N+]([O-])=Cc1c[nH]c(-c2ccccc2)n1"
  melting point: "209 to 210 °C"
- compound: "CCOC(=O)C1=NNC(C)=C(C(=O)OCC)C1c1cccc([N+](=O)[O-])c1 (stereo not drawn)"
  melting point: "117 °C"
- compound: "CCOc1cc2c(cc1OCC)C(C(C#N)SCCO)=NCC2 (stereo not drawn)"
  melting point: "94 to 96 °C"

---

Reported melting point by item:
value type: melting point

- molecule: "Nn1c(=O)c(=O)[nH]c2c(Br)cc(F)cc21"
  test value: "293 to 295 °C"
- molecule: "COc1ccc(-c2cc(=Nc3c(C)cc(C)cc3C)n(C)c(N3CCNCC3)n2)cc1OC"
  test value: "185 to 189 °C"
- molecule: "CCOc1ccc(C(=O)CC(C(=O)O)N2CCOCC2)cc1OC (stereo not drawn)"
  test value: "157 °C"
- molecule: "COC(=O)C=Cc1ccc(-c2ccc(C=CC(=O)OC)cc2C(F)(F)F)c(C(F)(F)F)c1"
  test value: "158 to 161 °C"
- molecule: "CCCOc1ccc([N+](=O)[O-])nc1C"
  test value: "54 to 56 °C"
- molecule: "c1ccc(-c2nc(-c3ccccc3)c(-c3ccccc3)s2)cc1"
  test value: "84 to 85.5 °C"
- molecule: "COC(=O)CC1=C(C)C(=Cc2ccc(S(N)(=O)=O)cc2)c2ccc(OC)cc21"
  test value: "170 to 171 °C"
- molecule: "CSC1=Nc2ccccc2C(=O)N(C)C1c1ccccc1 (stereo not drawn)"
  test value: "130 to 132 °C"

---

- compound: "O=C(O)c1c2c(nc3ccc(F)cc13)-c1ccc(C3CCCCC3)cc1CC2"
  melting point: "118 to 121 °C"
- compound: "CSc1ccc(-c2nn(Cc3ccc(F)cc3)c(=O)cc2-c2ccc(F)cc2)cc1"
  melting point: "156 °C"
- compound: "CC(=O)c1cc(S)c(Cl)cc1CC(=O)OCF"
  melting point: "125 to 126 °C"

---

Reported melting point by item:
value type: melting point

- compound: "Cc1nnsc1C(=O)Nc1ccc(-n2nc(C(F)(F)F)cc2C2CC2)cc1"
  value type: "melting point"
  test value: "84 to 89 °C"
- compound: "CNC(=NCCSCc1ccc2nc[nH]c2c1)NC#N"
  value type: "melting point"
  test value: "191 °C"
- compound: "COC(=O)C1=C(C)NC(C)=C(C(=O)O)[C@H]1c1cccc2nonc12"
  value type: "melting point"
  test value: "175 °C"
- compound: "Clc1ccc(C23CCN(CC2)C3)cn1"
  value type: "melting point"
  test value: "70 to 72 °C"
- compound: "CC1(C)C(C=C(F)C(=O)O)C1C(=O)OCc1ccccc1 (stereo not given)"
  value type: "melting point"
  test value: "88 °C"
- compound: "C[C@]1(CN2CCN(C(=O)OCc3ccc(C(F)(F)F)cc3)CC2)Cn2cc([N+](=O)[O-])nc2O1"
  value type: "melting point"
  test value: "140 to 142 °C"
- compound: "NC(=O)c1c(F)ccc([N+](=O)[O-])c1F"
  value type: "melting point"
  test value: "134 to 135 °C"
- compound: "CCC1NC(C(=O)O)Cc2c1[nH]c1ccccc21 (stereo not given)"
  value type: "melting point"
  test value: "236 to 237 °C"
- compound: "O=C1c2ccc(Br)cc2C(=O)c2ccc(Br)cc21"
  value type: "melting point"
  test value: "> 280 °C"
- compound: "O=Cc1cn(-c2ccc(C(F)(F)F)cn2)nc1C1CCCCC1"
  value type: "melting point"
  test value: "103 to 104 °C"
